Test: Plasma concentration in mice
Type: in vivo
Settings: female, athymic nude (NU/NU, Charles River strain # 088), mouse, intraperitoneal, 10 mg/kg, after 4 hours, read-out: maximum concentration (Cmax) in blood (or plasma)
readout.type: Cmax (µM)
Provide the reading as a plain figure in µM.

Which value of Cmax has been reported for CN1CCOC(CNC(=O)C2(C)C(c3ccc(Cl)o3)C(c3ccc(F)cc3F)=NN2c2ccc(F)cc2F)C1 (stereo not shown) [Compound 249C] in the records?
20

----------
Molecular target: UniProtKB Q12809
Test: in vitro
readout.type: inhibition at 30 µM

Record CCN(CCO)CCCC(C)Nc1ccnc2cc(Cl)ccc12 (stereo not shown) [HCQ, hydroxychloroquine] : what is its inhibition at 30 µM with UniProtKB Q12809?
~60%

----------
# inhibition at 30 µM listing for each entry below
Target: hERG (Homo sapiens, UniProt Q12809)
Sequence (Q12809 whole entry): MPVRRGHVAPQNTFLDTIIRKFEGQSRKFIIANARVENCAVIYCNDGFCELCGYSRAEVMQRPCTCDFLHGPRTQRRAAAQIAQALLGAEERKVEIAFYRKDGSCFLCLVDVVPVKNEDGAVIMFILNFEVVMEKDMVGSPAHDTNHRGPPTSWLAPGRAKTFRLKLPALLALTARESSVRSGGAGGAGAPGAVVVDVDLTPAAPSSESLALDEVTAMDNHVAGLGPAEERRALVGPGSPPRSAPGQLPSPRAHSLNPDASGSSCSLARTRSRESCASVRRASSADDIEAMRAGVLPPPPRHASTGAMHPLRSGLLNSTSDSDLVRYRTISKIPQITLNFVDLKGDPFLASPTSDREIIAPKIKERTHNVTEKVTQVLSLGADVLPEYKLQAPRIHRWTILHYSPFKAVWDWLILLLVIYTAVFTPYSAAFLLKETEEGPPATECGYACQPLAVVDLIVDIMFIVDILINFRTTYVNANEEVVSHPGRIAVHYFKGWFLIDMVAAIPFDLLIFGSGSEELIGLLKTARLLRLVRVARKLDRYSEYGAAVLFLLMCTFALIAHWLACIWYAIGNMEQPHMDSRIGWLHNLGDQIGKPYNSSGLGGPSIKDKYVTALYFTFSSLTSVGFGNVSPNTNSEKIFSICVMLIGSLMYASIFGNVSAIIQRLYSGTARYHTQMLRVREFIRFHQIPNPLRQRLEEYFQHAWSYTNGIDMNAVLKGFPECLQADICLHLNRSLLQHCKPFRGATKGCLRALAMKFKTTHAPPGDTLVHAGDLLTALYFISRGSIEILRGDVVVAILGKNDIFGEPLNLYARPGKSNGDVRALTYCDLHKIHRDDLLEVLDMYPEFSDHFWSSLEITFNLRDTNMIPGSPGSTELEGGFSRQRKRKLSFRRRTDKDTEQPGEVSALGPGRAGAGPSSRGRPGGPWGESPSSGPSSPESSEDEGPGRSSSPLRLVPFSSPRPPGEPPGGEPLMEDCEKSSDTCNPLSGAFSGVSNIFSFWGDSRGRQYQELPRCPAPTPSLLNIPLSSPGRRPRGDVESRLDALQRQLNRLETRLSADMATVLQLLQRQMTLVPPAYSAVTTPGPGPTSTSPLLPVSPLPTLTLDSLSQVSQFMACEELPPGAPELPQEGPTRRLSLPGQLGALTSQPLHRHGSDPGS
Experiment: hERG fluorescence polarization assay
Settings: human
Provide the reading as a plain figure in %.

>  <compound>
CN1CCOC(CNC(=O)C2(C)C(c3ccc(Cl)o3)C(c3ccc(F)cc3F)=NN2c2ccc(F)cc2F)C1 (centres unmarked) [Compound 249C]

>  <inhibition at 30 µM / %>
0

$$$$

Which value of inhibition at 30 µM has been reported for CO/C1=C\C(C)=C\[C@@H](C)[C@@H](O)[C@@H](C)C/C(C)=C/C=C/[C@H](OC)[C@@H]([C@@H](C)[C@@H](O)[C@H](C)[C@@]2(O)C[C@@H](O)[C@H](C)[C@@H](C(C)C)O2)OC1=O [Bafilomycin A1, reference compound] in the records?
35

----------
Test system: MEFs KRAS Q61L
Assay: Cell proliferation of Ras-less MEFs expressing human KRAS/BRAF
Conditions: Mus musculus
readout.type: pIC50
Kindly note that pIC50 refers to -log10 of the concentration in mol/L and answer with the value alone.

Which value of pIC50 has been reported for CN1CCOC(CNC(=O)C2(C)C(c3ccc(Cl)o3)C(c3ccc(F)cc3F)=NN2c2ccc(F)cc2F)C1 (stereo not shown) [Compound 249C] in the records?
6.51

----------
Target: entire mammalian V-ATPase complex (Sus scrofa, UniProt Q9TVC1)
Construct: the entire V-ATPase complex (800 kDa) was purified as described previously from porcine kidneys
Sequence (Q9TVC1 whole entry): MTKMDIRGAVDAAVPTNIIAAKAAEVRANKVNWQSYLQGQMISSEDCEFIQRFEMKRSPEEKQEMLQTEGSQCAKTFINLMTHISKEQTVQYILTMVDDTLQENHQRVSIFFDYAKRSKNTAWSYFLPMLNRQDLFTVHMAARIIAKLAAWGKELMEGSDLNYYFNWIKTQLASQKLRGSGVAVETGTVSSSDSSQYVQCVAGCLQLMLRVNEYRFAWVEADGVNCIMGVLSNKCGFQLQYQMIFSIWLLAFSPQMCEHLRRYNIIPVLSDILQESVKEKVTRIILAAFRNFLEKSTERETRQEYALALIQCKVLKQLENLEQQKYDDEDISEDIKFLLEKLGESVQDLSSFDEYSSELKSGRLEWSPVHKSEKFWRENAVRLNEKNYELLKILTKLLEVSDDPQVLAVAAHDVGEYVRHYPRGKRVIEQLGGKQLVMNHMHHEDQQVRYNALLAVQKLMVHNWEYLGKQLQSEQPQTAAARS
Sequence (Q29048 whole entry partner): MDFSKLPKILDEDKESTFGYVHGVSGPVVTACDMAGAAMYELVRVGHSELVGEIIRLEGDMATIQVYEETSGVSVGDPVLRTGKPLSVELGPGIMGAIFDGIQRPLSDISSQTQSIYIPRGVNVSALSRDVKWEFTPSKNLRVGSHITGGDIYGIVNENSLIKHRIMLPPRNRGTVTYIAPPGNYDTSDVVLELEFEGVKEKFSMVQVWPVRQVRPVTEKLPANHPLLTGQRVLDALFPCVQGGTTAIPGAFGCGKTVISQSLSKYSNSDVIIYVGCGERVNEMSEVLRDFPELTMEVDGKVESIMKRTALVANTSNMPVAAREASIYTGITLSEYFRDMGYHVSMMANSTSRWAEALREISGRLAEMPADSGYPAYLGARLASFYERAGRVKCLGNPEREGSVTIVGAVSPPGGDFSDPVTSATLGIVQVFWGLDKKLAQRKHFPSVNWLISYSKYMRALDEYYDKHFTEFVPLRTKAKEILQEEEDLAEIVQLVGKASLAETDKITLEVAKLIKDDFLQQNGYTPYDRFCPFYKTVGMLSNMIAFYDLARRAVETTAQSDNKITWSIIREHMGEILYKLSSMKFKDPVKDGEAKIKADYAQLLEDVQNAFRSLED
Experiment: Bio-layer interferometry (BLI)
Conditions: biotinylated-249C on streptavidin sensors
readout.type: Kd (nM)
Provide the reading as a plain figure in nM.

Which value of Kd has been reported for CN1CCOC(CNC(=O)C2(C)C(c3ccc(Cl)o3)C(c3ccc(F)cc3F)=NN2c2ccc(F)cc2F)C1 (stereo not shown) [Compound 249C] in the records?
23

----------
Biological target: DDR1 (Homo sapiens, UniProt Q08345)
Sequence (Q08345 19-913): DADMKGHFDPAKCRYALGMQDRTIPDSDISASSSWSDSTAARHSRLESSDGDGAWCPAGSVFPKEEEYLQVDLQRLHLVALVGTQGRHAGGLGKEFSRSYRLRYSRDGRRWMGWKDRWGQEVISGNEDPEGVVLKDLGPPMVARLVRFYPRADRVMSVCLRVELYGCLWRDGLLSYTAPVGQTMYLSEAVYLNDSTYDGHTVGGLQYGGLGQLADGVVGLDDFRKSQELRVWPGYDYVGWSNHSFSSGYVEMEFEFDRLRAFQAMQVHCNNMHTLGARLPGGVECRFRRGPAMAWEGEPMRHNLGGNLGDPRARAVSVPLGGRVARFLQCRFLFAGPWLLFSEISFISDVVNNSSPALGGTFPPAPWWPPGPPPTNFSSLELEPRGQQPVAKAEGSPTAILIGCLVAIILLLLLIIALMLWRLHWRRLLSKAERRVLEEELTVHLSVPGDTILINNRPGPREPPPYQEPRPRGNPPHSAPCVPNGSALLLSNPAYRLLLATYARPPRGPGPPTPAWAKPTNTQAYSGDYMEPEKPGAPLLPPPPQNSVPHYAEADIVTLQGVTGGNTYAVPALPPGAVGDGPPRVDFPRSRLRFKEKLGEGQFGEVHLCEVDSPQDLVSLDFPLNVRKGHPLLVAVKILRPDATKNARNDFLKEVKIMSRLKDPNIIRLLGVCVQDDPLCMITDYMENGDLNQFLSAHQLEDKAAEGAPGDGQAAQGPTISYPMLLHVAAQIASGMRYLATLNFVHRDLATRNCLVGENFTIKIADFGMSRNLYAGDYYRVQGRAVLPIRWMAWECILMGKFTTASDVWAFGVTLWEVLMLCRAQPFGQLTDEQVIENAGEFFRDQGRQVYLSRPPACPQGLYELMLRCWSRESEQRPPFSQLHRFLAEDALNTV
readout.type: Kd (µM)
Provide the reading as a plain figure in µM.

Which value of Kd has been reported for CN1CCOC(CNC(=O)C2(C)C(c3ccc(Cl)o3)C(c3ccc(F)cc3F)=NN2c2ccc(F)cc2F)C1 (stereo not shown) [Compound 249C] in the records?
5.4

----------
System: MEFs KRAS G13D
Experiment: Cell proliferation of Ras-less MEFs expressing human KRAS/BRAF
Settings: Mus musculus
readout.type: pIC50
Kindly note that pIC50 refers to -log10 of the concentration in mol/L and answer with the value alone.

Record CN1CCOC(CNC(=O)C2(C)C(c3ccc(Cl)o3)C(c3ccc(F)cc3F)=NN2c2ccc(F)cc2F)C1 (stereo not shown) [Compound 249C] : what is its pIC50 with MEFs KRAS G13D?
7.15

// data source = paper PMC9750872
